- Tested on: HeLa cells
- methodSummary: In vitro expression of firefly luciferase (Fluc) after treatment with Fluc mRNA/amino lipidated peptoid formulations, no PEG or 2% DMG-PEG2000
- Assay type: cell-based
- details: no PEG, peptoid:Fluc mRNA 5:1 w/w, 100 ng/well, 6 h of treatment
Criterion: Luciferase Expression (RLU) 6 h strictly less than 600 RLU. Met: condition met. Not met: condition not met.

[
  {
    "chemicalSmiles": "CCCCCCCCCCN(CC(N)=O)C(=O)CN(CCCCCCCCCC)C(=O)CN(CCc1ccccc1)C(=O)CN(CCc1ccccc1)C(=O)CNCCN",
    "discreteLabel": "condition met"
  },
  {
    "chemicalSmiles": "CCCCCCCCCCN(CC(N)=O)C(=O)CN(CCCCCCCCCC)C(=O)CN(CCCCCCCCCC)C(=O)CN(CCCCCCCCCC)C(=O)CN(CCc1ccccc1)C(=O)CN(CCc1ccccc1)C(=O)CN(CCCN)C(=O)CN(CCc1ccccc1)C(=O)CN(CCc1ccccc1)C(=O)CN(CCCN)C(=O)CN(CCc1ccccc1)C(=O)CN(CCc1ccccc1)C(=O)CNCCCN",
    "discreteLabel": "condition not met"
  },
  {
    "chemicalSmiles": "CCCCCCCCCCN(CC(N)=O)C(=O)CN(CCCCCCCCCC)C(=O)CN(CCc1ccccc1)C(=O)CN(CCc1ccccc1)C(=O)CN(CCN)C(=O)CN(CCc1ccccc1)C(=O)CN(CCc1ccccc1)C(=O)CNCCN",
    "discreteLabel": "condition not met"
  },
  {
    "chemicalSmiles": "CCCCCCCCCCN(CC(N)=O)C(=O)CN(CCCCCCCCCC)C(=O)CN(CCN)C(=O)CN(CCN)C(=O)CNCCN",
    "discreteLabel": "condition met"
  },
  {
    "chemicalSmiles": "CCCCCCCCCCN(CC(N)=O)C(=O)CN(CCCCCCCCCC)C(=O)CN(CCc1ccccc1)C(=O)CN(CCN)C(=O)CN(CCc1ccccc1)C(=O)CN(CCN)C(=O)CN(CCc1ccccc1)C(=O)CNCCN",
    "discreteLabel": "condition met"
  }
]

Recorded values, source patent US20220323594A1.
